protocol.summary: solvent given as SMILES
assay.context: in CCO
endpoint.label: emission maximum (nm)
Numbers only, in nm.

As a guide, the following entries are already answered.
[
  {
    "compound": "N#CC(C#N)=Cc1ccc(-c2ccc(-c3nc4ccccc4s3)c(O)c2)o1",
    "reading.unit": "nm",
    "emission maximum": 501
  },
  {
    "compound": "O=C(O)COc1ccc2[nH]c3c(c2c1)CCCC3=O",
    "reading.unit": "nm",
    "emission maximum": 472.12
  },
  {
    "compound": "CN(C)c1ccc2c(-c3cc(C(=O)[O-])ccc3C(=O)[O-])c3ccc(=[N+](C)C)cc-3oc2c1",
    "reading.unit": "nm",
    "emission maximum": 564
  },
  {
    "compound": "c1ccc(-c2cc(-c3ccc4ccc5c(-c6ccnc(-c7ccccn7)c6)ccc6ccc3c4c65)ccn2)nc1",
    "reading.unit": "nm",
    "emission maximum": 430
  },
  {
    "compound": "CCn1c2ccccc2c2cc(/C=C/C(=O)c3ccc4c(c3)c3cc(C(=O)/C=C/c5ccc6c(c5)c5ccccc5n6CC)ccc3n4CC)ccc21",
    "reading.unit": "nm",
    "emission maximum": 521
  },
  {
    "compound": "COCCOCCOc1cc(C=O)c(OCCOCCOC)cc1C=O",
    "reading.unit": "nm",
    "emission maximum": 464
  },
  {
    "compound": "Cc1ccccc1-c1c2ccc(=[N+]3CCN(C(=O)OC(C)(C)C)CC3)cc-2oc2cc(N3CCN(C(=O)OC(C)(C)C)CC3)ccc12",
    "reading.unit": "nm",
    "emission maximum": 580
  },
  {
    "compound": "CC1=NN(c2ccccc2)C(=O)/C1=C/c1cn(-c2ccccc2)nc1-c1ccccc1",
    "reading.unit": "nm",
    "emission maximum": 427
  }
]

Okay, next one:
Quick check: emission maximum of `Nc1ccc2c(c1)C(=O)O/C2=C\c1ccc(Cl)cc1` ? 487.33

* * *

protocol.summary: solvent given as SMILES
assay.context: in c1cc(-n2c3ccccc3c3ccccc32)cc(-n2c3ccccc3c3ccccc32)c1
Give measured emission maximum for each item. Keep answers brief.
Respond with the figure and its unit, in that order.

[
  {
    "compound": "O=S1(=O)c2ccccc2C2(c3cc(-c4ccc(N(c5ccccc5)c5ccccc5)cc4)ccc3-c3ccc(-c4ccc(N(c5ccccc5)c5ccccc5)cc4)cc32)c2ccccc21",
    "emission maximum": "448 nm"
  }
]

Hey, quick one: what's emission maximum for each of these?
1. c1ccc(N(c2ccccc2)c2ccc(-c3ccc4c(c3)C3(c5ccccc5Sc5ccccc53)c3cc(-c5ccc(N(c6ccccc6)c6ccccc6)cc5)ccc3-4)cc2)cc1
2. c1ccc(-c2nnc(-c3ccc(N4c5ccccc5N(c5ccccc5)c5ccccc54)cc3)o2)cc1
3. COc1ccc(-c2ccc3c(c2)c2cc(-c4ccc(OC)cc4)ccc2n3-c2ccc(C(=O)c3ccc4sc5ccccc5c4c3)cc2)cc1

["438 nm", "550 nm", "462 nm"]

* * *

protocol.summary: solvent given as SMILES
assay.context: in ClCCl
Where emission maximum equals or exceeds 600 nm, the correct label is True; where it does not, the label is False.

Solved entries (count: 6):
[
  {
    "compound": "CCN(CC)c1ccc2c(-c3ccccc3C(=O)O)c3c([o+]c2c1)/C(=C/c1ccc(N(C)C)s1)CCC3",
    "assigned.label": "True"
  },
  {
    "compound": "Cc1cccc(C)c1/C=C/c1nc(N2CCOCC2)c2c([n+]1[O-])CCCC2",
    "assigned.label": "False"
  },
  {
    "compound": "CC[N+](CC)=c1ccc2cc3c(oc-2c1)-c1ccc(N(C)C)cc1CC3",
    "assigned.label": "True"
  },
  {
    "compound": "CN(C)c1ccc2c3c(ccc2c1)CCCC3=O",
    "assigned.label": "False"
  },
  {
    "compound": "Cc1cc(O)c(C(=O)/C=C/c2ccccc2[N+](=O)[O-])c(=O)o1",
    "assigned.label": "False"
  },
  {
    "compound": "CCN(CC)c1ccc2cc(-c3nc4cc(C(=O)Nc5ccccc5[N+](=O)[O-])ccc4o3)c(=O)oc2c1",
    "assigned.label": "False"
  }
]

Has `CN(C)c1ccc2cc(C3=[O+][B-](F)(F)OC(c4ccccc4)=C3)ccc2c1` a recorded emission maximum greater than or equal to 600 nm? True

In plain terms: is recorded emission maximum at least 600 nm for `CCN(CC)c1ccc2ccc(=O)oc2c1` ? False
